Target: PI3Kδ (Homo sapiens)
Construct: Full length p110 subunits of PI3k α, β and δ, N-terminally labeled with polyHis tag; polyHis (N)
Sequence (O00329 whole entry): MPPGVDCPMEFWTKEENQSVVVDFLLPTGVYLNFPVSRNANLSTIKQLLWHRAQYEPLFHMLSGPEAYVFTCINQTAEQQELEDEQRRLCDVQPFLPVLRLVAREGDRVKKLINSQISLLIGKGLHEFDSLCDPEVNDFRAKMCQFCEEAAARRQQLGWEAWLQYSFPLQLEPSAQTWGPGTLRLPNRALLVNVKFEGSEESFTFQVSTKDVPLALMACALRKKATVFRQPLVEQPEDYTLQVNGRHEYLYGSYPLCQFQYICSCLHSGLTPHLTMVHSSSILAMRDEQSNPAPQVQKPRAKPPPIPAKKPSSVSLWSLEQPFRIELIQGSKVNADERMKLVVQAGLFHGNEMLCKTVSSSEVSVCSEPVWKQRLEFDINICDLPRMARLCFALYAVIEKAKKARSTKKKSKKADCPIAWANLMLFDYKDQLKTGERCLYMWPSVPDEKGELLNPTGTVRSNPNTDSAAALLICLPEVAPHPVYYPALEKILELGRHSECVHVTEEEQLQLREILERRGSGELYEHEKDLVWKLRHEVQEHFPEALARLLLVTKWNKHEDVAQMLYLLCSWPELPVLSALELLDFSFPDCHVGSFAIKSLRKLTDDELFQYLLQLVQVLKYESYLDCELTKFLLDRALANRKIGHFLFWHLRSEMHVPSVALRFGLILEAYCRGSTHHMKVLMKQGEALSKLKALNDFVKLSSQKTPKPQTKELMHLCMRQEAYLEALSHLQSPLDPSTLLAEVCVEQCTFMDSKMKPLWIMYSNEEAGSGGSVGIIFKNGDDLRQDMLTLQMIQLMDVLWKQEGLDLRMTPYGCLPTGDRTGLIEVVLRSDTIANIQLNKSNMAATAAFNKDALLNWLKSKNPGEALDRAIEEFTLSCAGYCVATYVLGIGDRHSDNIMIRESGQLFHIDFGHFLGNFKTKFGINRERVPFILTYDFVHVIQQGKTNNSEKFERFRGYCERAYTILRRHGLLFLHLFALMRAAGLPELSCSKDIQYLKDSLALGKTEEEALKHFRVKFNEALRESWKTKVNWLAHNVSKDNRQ
Sequence (P27986 whole entry partner): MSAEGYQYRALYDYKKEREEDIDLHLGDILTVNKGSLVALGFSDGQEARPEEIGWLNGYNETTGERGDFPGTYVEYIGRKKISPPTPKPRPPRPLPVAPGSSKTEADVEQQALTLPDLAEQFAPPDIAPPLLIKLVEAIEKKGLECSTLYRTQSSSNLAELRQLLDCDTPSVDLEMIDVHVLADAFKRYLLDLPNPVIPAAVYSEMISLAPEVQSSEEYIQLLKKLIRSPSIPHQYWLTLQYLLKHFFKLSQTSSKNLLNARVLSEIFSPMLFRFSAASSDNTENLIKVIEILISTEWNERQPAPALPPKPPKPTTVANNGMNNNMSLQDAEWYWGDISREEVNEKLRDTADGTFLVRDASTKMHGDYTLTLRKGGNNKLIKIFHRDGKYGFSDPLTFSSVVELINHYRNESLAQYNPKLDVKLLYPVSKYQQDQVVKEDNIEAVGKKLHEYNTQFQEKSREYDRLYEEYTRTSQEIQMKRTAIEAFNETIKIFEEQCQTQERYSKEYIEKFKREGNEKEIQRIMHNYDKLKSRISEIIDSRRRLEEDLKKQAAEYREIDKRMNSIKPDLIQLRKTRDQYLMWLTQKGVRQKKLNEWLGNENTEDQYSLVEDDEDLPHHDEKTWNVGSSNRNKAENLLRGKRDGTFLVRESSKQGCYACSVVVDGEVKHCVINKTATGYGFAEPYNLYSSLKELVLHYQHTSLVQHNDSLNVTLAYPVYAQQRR
Experiment: PI3Kδ Alphascreen assay
pKi: −log10 of the molar value.

# smiles input, pKi
rows = [
    ("Cc1c(-c2cc(F)cc(F)c2)nc2ncccc2c1Nc1cc(N2CCOCC2)ccc1N1CCOCC1", 6.24),
    ("Cc1c(-c2ccccn2)nc2cccc(F)c2c1Nc1cc(N2CCOCC2)ccc1S(C)(=O)=O", 9.31),
    ("Cc1c(-c2ccc(N3CC[C@@H](N(C)C)C3)nc2)nc2cc(F)cc(F)c2c1Nc1cc(N2CCOCC2)cnc1N1CCOCC1", 7.55),
    ("Cc1c(-c2cc(Cl)ccn2)nc2cc(F)cc(F)c2c1Nc1cc(N2CCOCC2)cnc1N1CCOCC1", 8.36),
    ("COc1ccc(-c2ncc(N3CCOCC3)cc2Nc2c(C)c(-c3cc(C)ccn3)nc3cc(F)cc(F)c23)cc1", 8.22),
    ("COc1ccc(-c2ccc(N3CCOCC3)cc2Nc2c(C)c(-c3ccccn3)nc3cc(F)cc(F)c23)cc1", 7.41),
    ("Cc1ccc(-c2nc3cc(F)cc(F)c3c(Nc3cc(N4CCOCC4)cnc3N3CCOCC3)c2C)c(C)c1", 7.57),
    ("Cc1ccc(-c2nc3cc(F)cc(F)c3c(Nc3cc(N4CCOCC4)cnc3N3CCOCC3)c2C)cc1C", 6.99),
    ("COc1cncc(-c2ncc(N3CCOCC3)cc2N(C(=O)C(F)(F)F)c2c(C)c(-c3ccccn3)nc3cc(F)cc(F)c23)c1", 6.64),
    ("COC(=O)N1CCN(c2nc3cc(F)cc(F)c3c(Nc3cncc(N4CCOCC4)c3)c2C)CC1", 8.03),
    ("Cc1c(-c2cncc(S(C)(=O)=O)c2)nc2cc(F)cc(F)c2c1Nc1cc(N2CCOCC2)cnc1N1CCOCC1", 7.08),
    ("Cc1c(-c2ccccn2)nc2cnccc2c1Nc1cc(N2CCOCC2)ccc1N1CCOCC1", 6.06),
    ("CCOc1ccc(-c2nc3cc(F)cc(F)c3c(Nc3cncc(N4CCOCC4)c3)c2C)cn1", 6.54),
    ("CCCN1CCN(c2nc3cc(F)cc(F)c3c(Nc3cncc(N4CCOCC4)c3)c2C)CC1=O", 8.04),
    ("Cc1ccc(C(=O)N2CCN(c3nc4cc(F)cc(F)c4c(Nc4cncc(N5CCOCC5)c4)c3C)CC2)o1", 7.11),
    ("Cc1ccnc(-c2nc3cc(F)cc(F)c3c(Nc3cc(N4CCOCC4)cnc3N3CCOCC3)c2C)c1", 6.63),
    ("COc1ccc(-c2ncc(N3CCOCC3)cc2Nc2c(C)c(-c3ccccn3)nc3cc(F)cc(F)c23)cn1", 8.81),
    ("C=Cc1ccnc(-c2nc3cc(F)cc(F)c3c(Nc3cc(N4CCOCC4)cnc3N3CCOCC3)c2C)c1", 6.92),
]
